# assayedTarget: CB1 receptor (Rattus norvegicus)
# Construct: except whole brain (rather than cortex only) was used
# Sequence (P20272 whole entry): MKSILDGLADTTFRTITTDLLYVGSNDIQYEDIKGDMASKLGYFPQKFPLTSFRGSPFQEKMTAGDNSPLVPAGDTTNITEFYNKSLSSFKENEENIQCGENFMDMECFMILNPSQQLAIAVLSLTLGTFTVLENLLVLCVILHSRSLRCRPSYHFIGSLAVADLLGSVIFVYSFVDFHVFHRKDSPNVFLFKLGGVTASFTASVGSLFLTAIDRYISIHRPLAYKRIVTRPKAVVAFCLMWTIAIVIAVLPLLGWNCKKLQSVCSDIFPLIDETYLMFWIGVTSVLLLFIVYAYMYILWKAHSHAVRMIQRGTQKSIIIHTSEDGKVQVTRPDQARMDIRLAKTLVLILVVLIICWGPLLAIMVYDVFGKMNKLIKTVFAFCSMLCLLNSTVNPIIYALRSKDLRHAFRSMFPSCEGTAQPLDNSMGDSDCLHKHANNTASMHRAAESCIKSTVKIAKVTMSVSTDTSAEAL
# protocolDetails: CB1 receptor binding assay, [3H]CP-55,940 displacement, whole brain P2 membranes
pKi: −log10 of the molar value.
Returns one of true or false; true when pKi is >= 6.

Here are 4 compounds together with their reported answers.
INSERT INTO results (smilesdata, assayedtarget, cat) VALUES
  ('CCCCCC(C)(C)c1cc(OC)c2c(c1)OC(C)(C)[C@@H]1CC[C@H](O)C[C@@H]21', 'CB1 receptor (Rattus norvegicus)', 'true'),
  ('CC[C@@H](C)Cc1cc(OC)c2c(c1)OC(C)(C)[C@@H]1CC=C(C)C[C@@H]21', 'CB1 receptor (Rattus norvegicus)', 'false'),
  ('CC[C@H](C)Cc1ccc2c(c1)OC(C)(C)[C@@H]1CC=C(C)C[C@@H]21', 'CB1 receptor (Rattus norvegicus)', 'false'),
  ('CCCCCC(C)(C)c1cc(OC)c2c(c1)OC(C)(C)[C@@H]1CC[C@@H](O)C[C@@H]21', 'CB1 receptor (Rattus norvegicus)', 'true');

**Query** Reported pKi reaches at least 6 for CCC[C@H](C)Cc1ccc2c(c1)OC(C)(C)[C@@H]1CC=C(C)C[C@@H]21 ?
**Result** false

**Query** Reported pKi reaches at least 6 for CCCCC(C)(C)c1cc(OC)c2c(c1)OC(C)(C)[C@@H]1CC[C@@H](O)C[C@@H]21 ?
**Result** true

The measured values listed here are drawn from patent US20060183922A1.
